# studyTarget: C. auris ASADH (Candidozyma auris)
# Sequence (A0A2H0ZN20 entry or part of it): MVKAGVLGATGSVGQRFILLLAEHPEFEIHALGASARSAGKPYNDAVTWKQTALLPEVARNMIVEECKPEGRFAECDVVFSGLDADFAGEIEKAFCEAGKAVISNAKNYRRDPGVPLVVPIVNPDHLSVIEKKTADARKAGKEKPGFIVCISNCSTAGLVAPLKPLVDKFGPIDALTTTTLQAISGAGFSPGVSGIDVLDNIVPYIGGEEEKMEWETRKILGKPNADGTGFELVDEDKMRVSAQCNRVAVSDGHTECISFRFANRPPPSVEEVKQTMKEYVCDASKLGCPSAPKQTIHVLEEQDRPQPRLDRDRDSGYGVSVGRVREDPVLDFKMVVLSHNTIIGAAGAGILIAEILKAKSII
# procedureText: C. auris ASADH irreversible inhibition
# Type: biochemical
Structures can show the parent of a compound that is named as a salt.
assayMetric: Ki (µM)
Report the figure in µM without appending any unit label.

Request: Entry NC(C/C=C/S(=O)(=O)Cc1ccccc1)C(=O)O (stereo not shown) [S-benzylsulfonylvinylalanine, hydrochloride] has what Ki?
Response: 0.3

###

# studyTarget: Candida albicans ASADH (CalASADH), aspartate semialdehyde dehydrogenase, his-tagged (Candida albicans, UniProt Q5ALM0)
# Construct: His tag; made in house
# Sequence (Q5ALM0 1-365): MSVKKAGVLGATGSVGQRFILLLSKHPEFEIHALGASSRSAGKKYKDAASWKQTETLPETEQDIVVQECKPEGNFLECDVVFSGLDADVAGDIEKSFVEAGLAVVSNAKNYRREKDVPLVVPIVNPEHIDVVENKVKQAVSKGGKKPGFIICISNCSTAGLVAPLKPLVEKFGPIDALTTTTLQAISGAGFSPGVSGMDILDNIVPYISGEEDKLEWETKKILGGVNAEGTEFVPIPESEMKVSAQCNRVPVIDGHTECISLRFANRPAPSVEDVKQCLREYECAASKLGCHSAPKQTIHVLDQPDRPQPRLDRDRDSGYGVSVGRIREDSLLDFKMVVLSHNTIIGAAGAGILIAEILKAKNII
# procedureText: Inhibition/time-dependent inactivation of Candida albicans ASADH by vinyl sulfones (purified his-tagged enzyme; NADPH production at 340 nm)
# Format: biochemical
# measurementParameters: FIG. 5; pH 8.6, 25° C., 0.3 mM ASA, 1.5 mM NADP, 20 mM phosphate; irreversible covalent inactivators
assayMetric: pKi
On this scale, pKi is minus log10 of a concentration expressed in M (mol/L).

Known pKi results, listed for orientation:
{"molecule": "O=S(=O)(/C=C/c1ccccn1)c1ccccc1 [Compound 8, 2-(Phenylsulfonylvinyl)pyridine]", "reported": 5.07}
{"molecule": "CS(=O)(=O)/C=C/c1ccc([N+](=O)[O-])cc1 [Compound 2, 4-(methylsulfonylvinyl)nitrobenzene]", "reported": 5.99}
{"molecule": "CS(=O)(=O)/C=C/c1cccnc1 [Compound 10, 3-(methylsulfonylvinyl)pyridine]", "reported": 4.60}
{"molecule": "O=S(=O)(/C=C/c1ccncc1)c1ccccc1 [Compound 5, 4-(phenylsulfonylvinyl)pyridine]", "reported": 5.67}
{"molecule": "CS(=O)(=O)/C=C/c1ccc(C(=O)O)cc1 [Compound 1, 4-(methylsulfonylvinyl)benzoic acid]", "reported": 6.11}

Request: Entry CS(=O)(=O)/C=C/c1ccc(O)c(O)c1 [Compound 4, 4-(methylsulfonylvinyl)-1,2-benzenediol] has what pKi?
Response: 5.45

Request: Input CS(=O)(=O)/C=C/c1ccccc1[N+](=O)[O-] [Compound 14, 2-(methylsulfonylvinyl)nitrobenzene]
Response: 4.25

Request: Input O=S(=O)(/C=C/c1cccnc1)c1ccccc1 [Compound 11, 3-(Phenylsulfonylvinyl)pyridine]
Response: 4.37

Request: Input CS(=O)(=O)/C=C/c1cccc([N+](=O)[O-])c1 [Compound 12, 3-(methylsulfonylvinyl)nitrobenzene]
Response: 4.71

Request: Input CS(=O)(=O)/C=C/c1cccc(C(=O)O)c1 [Compound 13, 3-(methylsulfonylvinyl)benzoic acid]
Response: 4.43

Request: Input CS(=O)(=O)/C=C/c1ccccn1 [Compound 3, 2-(methylsulfonylvinyl)pyridine]
Response: 5.58

Request: Input O=C(O)/C=C/S(=O)(=O)c1ccccc1 [Compound 15, 3-(phenylsulfonyl)acrylic acid]
Response: 4.17

Request: Input O=S(=O)(/C=C/c1ccccc1)C(F)(F)F [Compound 7, Trifluoromethylsulfonylvinylbenzene]
Response: 4.66

Request: Input CS(=O)(=O)/C=C/c1ccccc1 [Compound 6, Methylsulfonylvinylbenzene]
Response: 5.37

Request: Input CS(=O)(=O)/C=C/c1ccncc1 [Compound 9, 4-(methylsulfonylvinyl)pyridine]
Response: 5.24
